Target: FKBP12 (Homo sapiens, UniProt P62942)
Sequence (P62942 whole entry, species assumed): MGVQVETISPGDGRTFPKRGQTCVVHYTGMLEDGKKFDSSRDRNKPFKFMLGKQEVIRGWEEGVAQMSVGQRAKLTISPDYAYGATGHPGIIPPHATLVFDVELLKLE
Experiment: AlphaLISA: inhibition of binding of biotinylated FK506 to FLAG tagged FKBP12
Parameters: made in house
Details: read-out: Binding affinity to FKBP12 (by displacement of FK506)
pIC50: −log10 of the molar value.
Quantity Measured: pIC50

{"columns": ["Test Smiles", "Subject Of Test", "Readout Number"],
 "data": [
  ["CC[C@H](Cc1ccccc1)[C@@H]1CCCCCC(=O)[C@@H](C)[C@H](O)[C@@H](C)[C@@H]2CC[C@@H](C)[C@@](O)(O2)C(=O)C(=O)N2CCCC[C@H]2C(=O)O1", "FKBP12 (Homo sapiens, UniProt P62942)", 9.68]
]}

---

Target: CEP250 (Homo sapiens)
Construct: CEP25011.4 (residues 2134-2231) (in-house); made in house
Test: SPR binding of CEP250 (analyte) to immobilized FKBP12-F2 binary complex
Details: KD, FKBP12/F2 complex to CEP25029.2 (residues 1982-2231)

{"columns": ["Compound", "Kd"],
 "data": [
  ["CC[C@H](Cc1ccccc1)[C@@H]1/C=C/C/C=C/C[C@@H](C)[C@H](O)[C@@H](C)[C@@H]2CC[C@@H](C)C(=O)C(O)(O2)C(=O)N2CCCC[C@H]2C(=O)O1 [F2]", "0.29 nM"]
]}

---

In this section we review reported IC50 values for a set of compounds.
Molecular target: FKBP12 (Homo sapiens, UniProt P62942)
Assay: AlphaLISA: inhibition of binding of biotinylated FK506 to FLAG tagged FKBP12
Design: made in house

{"columns": ["Compound", "IC50"],
 "data": [
  ["COC1C=C(/C=C/C2OC(=O)C3CCCCN3C(=O)C3(O)OC(CCC(C)C3=O)C(C)C3CC4OC(CC(O)C2C)(O3)C(C)CC4C)CCC1O (centres unmarked) [F7]", "26 nM"],
  ["CCC1/C=C(\\C)C(O)CCC(C)/C=C/C(O)C(C)C2CCC(C)C(O)(O2)C(=O)C(=O)N2CCCCC2C(=O)OC2C=CC(=CC2O)/C=C(\\C)C1 (centres unmarked) [F10]", "21.1 nM"],
  ["CCC(/C=C(\\C)C(O)CCC(C)/C=C/C(O)C(C)C1CCC(C)C(O)(C(=O)C(=O)N2CCCCC2C(=O)O)O1)C/C(C)=C/C1=CC(O)C(O)C=C1 (centres unmarked) [F14]", "1800 nM"],
  ["COC1CC(CC(C)C2CCC/C=C/C/C(C)=C/CC3OC(O)(C(=O)C(=O)N4CCCCC4C(=O)O2)C(C)CC3C)CCC1O (centres unmarked) [F19]", "0.22 nM"],
  ["COC1CC(/C=C(C)/C=C(\\C)C2CC(O)C/C=C(C)/C=C/C(=O)C/C=C/CC(C)C3OC(O)(CC(=O)N4CCCCC4C(=O)O2)C(C)CC3C)C=CC1O (centres unmarked) [F16]", "67.5 nM"],
  ["CCC(/C=C(\\C)C(O)CCC(C)/C=C/C(O)C(C)C1CCC(C)C(O)(C(=O)C(=O)N2CCCCC2C(=O)O)O1)C/C(C)=C/C1=CC(OC)C(O)C=C1 (centres unmarked) [F15]", "1930 nM"],
  ["COC1C(O)CCC(CC(C)C2CCC/C=C/C/C(C)=C/CC3OC(O)(C(=O)C(=O)N4CCCCC4C(=O)O2)C(C)CC3C)C1O (centres unmarked) [F9]", "0.3 nM"],
  ["CC(=C\\C1C=CC(O)C(O)C1)/C=C(\\C)C1CC(O)CC1C(C)(O)/C=C/C(O)C/C=C/CC(C)C1OC(O)(CC(=O)N2CCCCC2C(=O)O)C(C)CC1C (centres unmarked) [F23]", "4690 nM"],
  ["COC1C=C(/C=C/C2OC(=O)C3CCCCN3C(=O)C(=O)C3(O)OC(CCC3C)C(C)C3CC4OC(CC(O)C2C)(O3)C(C)CC4C)CCC1O (centres unmarked) [F8]", "10.6 nM"],
  ["COC1CC(/C=C(C)/C=C(\\C)C2CC(O)C/C=C(C)/C=C/C(O)C/C=C/CC(C)C3OC(O)(CC(=O)N4CCCCC4C(=O)O2)C(C)CC3C)C=CC1O (centres unmarked) [F13]", "33.6 nM"],
  ["C/C1=C\\CC2OC(O)(C(=O)C(=O)N3CCCCC3C(=O)OC(C(C)CC3CCC(O)C(O)C3)CCC/C=C/C1)C(C)CC2C (centres unmarked) [F17]", "0.26 nM"],
  ["CCC(/C=C(\\C)C(O)CCC(C)/C=C/C(O)C(C)C1CCC(C)C(O)(C(=O)C(=O)N2CCCCC2C(=O)O)O1)C/C(C)=C/c1ccc(O)c(O)c1 (centres unmarked) [F18]", "229 nM"],
  ["C/C1=C\\C2=CC(O)C(C=C2)OC(=O)C2CCCCN2C(=O)C(=O)C2(O)OC(CCC2C)C(C)C(O)/C=C/C(C)CCC(O)/C(C)=C/C(C)C1 (centres unmarked) [F12]", "36.3 nM"],
  ["CC1=C\\CC(O)CC(/C(C)=C/C(C)=C/C2C=CC(O)C(O)C2)OC(=O)C2CCCCN2C(=O)CC2(O)OC(C(C)C/C=C/CC(O)\\C=C\\1)C(C)CC2C (centres unmarked) [F6]", "60 nM"]
]}

---

In this section we review reported % inhibition of CsA binding to Cyclophilin A values for a set of compounds.
Target: Cyclophilin A (Homo sapiens)
Construct: made in house
Sequence (P62937 whole entry, species assumed): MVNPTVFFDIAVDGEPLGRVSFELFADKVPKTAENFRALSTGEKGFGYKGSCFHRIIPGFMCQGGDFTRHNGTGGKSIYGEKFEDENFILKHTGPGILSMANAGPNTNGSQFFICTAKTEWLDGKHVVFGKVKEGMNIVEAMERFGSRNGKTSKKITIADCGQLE
Test: biochemical
Type: binding
Square brackets hold non-standard residues; d marks the D form. Peptide text beside a SMILES is read from it. MeBmt = C/C=C/C[C@@H](C)[C@@H](O)[C@H](NC)C(=O)O; NMeT = CN[C@H](C(=O)O)[C@@H](C)O; NMeL = CN[C@@H](CC(C)C)C(=O)O; Tle = CC(C)(C)[C@H](N)C(=O)O; NMeV = CN[C@H](C(=O)O)C(C)C; NMeA = CN[C@@H](C)C(=O)O; dNMeA = CN[C@H](C)C(=O)O; Abu = CC[C@H](N)C(=O)O; Sar = CNCC(=O)O
Quantity Measured: % inhibition of CsA binding to Cyclophilin A (%)

{"columns": ["Compound", "Subject Of Test", "Scale Unit", "Readout Number"],
 "data": [
  ["C/C=C/C[C@@H](C)[C@@H](O)[C@H]1C(=O)N[C@@H](CC)C(=O)N(C)CC(=O)N(C)[C@H](C)C(=O)N[C@@H](C(C)C)C(=O)N(C)CC(=O)N[C@@H](C)C(=O)N[C@H](C)C(=O)N(C)[C@@H](CC(C)C)C(=O)N(C)[C@@H](CC(C)C)C(=O)N(C)[C@@H](C(C)C)C(=O)N1C [C27] (cyclo([MeBmt][Abu][Sar][dNMeA]V[Sar]A[dA][NMeL][NMeL][NMeV]))", "Cyclophilin A (Homo sapiens)", "%", 94.73],
  ["C/C=C/C[C@@H](C)[C@@H](O)[C@H]1C(=O)N[C@@H](CC)C(=O)N(C)CC(=O)N(C)[C@H](C)C(=O)N[C@@H](C(C)C)C(=O)N(C)[C@@H](C)C(=O)N[C@@H](CC(C)C)C(=O)N[C@H](C)C(=O)N(C)[C@@H](CC(C)C)C(=O)N(C)[C@@H](CC(C)C)C(=O)N(C)[C@@H](C(C)C)C(=O)N1C [C83] (cyclo([MeBmt][Abu][Sar][dNMeA]V[NMeA]L[dA][NMeL][NMeL][NMeV]))", "Cyclophilin A (Homo sapiens)", "%", 99.35],
  ["C/C=C/C[C@@H](C)[C@@H](O)[C@H]1C(=O)N[C@@H](CC)C(=O)N(C)CC(=O)N(C)[C@@H]([C@@H](C)O)C(=O)N[C@@H](C(C)(C)C)C(=O)N(C)[C@@H](C)C(=O)N[C@@H](CC(C)C)C(=O)N[C@H](C)C(=O)N(C)[C@@H](CC(C)C)C(=O)N(C)[C@@H](CC(C)C)C(=O)N(C)[C@@H](C(C)C)C(=O)N1C [C75] (cyclo([MeBmt][Abu][Sar][NMeT][Tle][NMeA]L[dA][NMeL][NMeL][NMeV]))", "Cyclophilin A (Homo sapiens)", "%", 96.12]
]}
